The entries below are paired with their reported inhibition of aggregation.
Assay: reduction of polyQ htt aggregates in cells – imaging, exon1htt(103Q)mCFP cells, high-content imaging, primary screen (AID 483);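 also: compound exposure lasted 3 days before fixation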
Conditions: exon1htt(103Q)mCFP cell line, aggregate imaging, at 2 µM; active compounds read high
# number only, unit % dropped from output

Check the records and state inhibition of aggregation for "CCOc1cc(-c2nc(-c3ccccc3OC)no2)cc(OCC)c1OCC"
0.8

Check the records and state inhibition of aggregation for O=C1C2ON(c3ccc(Cl)cc3)C(c3ccco3)C2C(=O)N1c1ccccc1 (stereo unspecified)
15.7

Check the records and state inhibition of aggregation for "COC(=O)c1ccc(-c2nn(C)c(=O)c3ccccc23)cc1"
-11.1

Check the records and state inhibition of aggregation for CC1=CCC2C(=O)N(c3nc(C)cc(C)n3)C(=O)C2C1 (stereo unspecified)
9

Check the records and state inhibition of aggregation for "COc1ccc(S(=O)(=O)CCC(=O)O)cc1"
25.4

Check the records and state inhibition of aggregation for "Cc1onc(-c2c(Cl)cccc2Cl)c1C(N)=O"
-2.8

Check the records and state inhibition of aggregation for "Cc1ccccc1C(=O)NC1CCN(Cc2nnnn2CCc2ccccc2)CC1"
-10.6
